Target: Alpha-2B adrenergic receptor (Homo sapiens, UniProt P18089)
Sequence (P18089 whole entry): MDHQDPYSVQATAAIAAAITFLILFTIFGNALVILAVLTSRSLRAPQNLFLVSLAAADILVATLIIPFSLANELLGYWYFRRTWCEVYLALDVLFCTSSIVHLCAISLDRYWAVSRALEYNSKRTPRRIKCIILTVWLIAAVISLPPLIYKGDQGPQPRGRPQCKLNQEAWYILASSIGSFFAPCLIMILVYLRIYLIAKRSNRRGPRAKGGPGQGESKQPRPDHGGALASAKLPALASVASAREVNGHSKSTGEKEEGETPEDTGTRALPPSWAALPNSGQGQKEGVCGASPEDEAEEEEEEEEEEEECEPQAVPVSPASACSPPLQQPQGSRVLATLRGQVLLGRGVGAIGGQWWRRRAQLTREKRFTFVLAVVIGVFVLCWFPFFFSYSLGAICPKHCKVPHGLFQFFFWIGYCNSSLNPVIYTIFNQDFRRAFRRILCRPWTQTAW
pKi: −log10 of the molar value.
The entries below come with measured pKi values attached.

smiles string	assayed target	pKi
c1ccc2c(c1)cnn2N=C1NCCN1	Alpha-2B adrenergic receptor (Homo sapiens, UniProt P18089)	7.10
Fc1cccc2cnn(N=C3NCCN3)c12	Alpha-2B adrenergic receptor (Homo sapiens, UniProt P18089)	6.80
Fc1ccc2cnn(N=C3NCCN3)c2c1	Alpha-2B adrenergic receptor (Homo sapiens, UniProt P18089)	7.14
